The measurements presented in this section are drawn from the supplement of paper PMC9170038.

- Tested on: K4 kissing-loop RNA reporter;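 further: bound reporter read as fluorescence of individual clusters on recovered sequencing chips by microscopy, with normalized cluster intensities fitted with a binding model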
- run_description: apparent KD of K4 kissing-loop reporter; higher = weaker reporter binding
- measurement_conditions: Eterna round: R107; input ligand: theophylline 20 uM
Give measured apparent KD of K4 kissing-loop reporter for each item. Keep answers brief.
Numbers only, in nM.

Consider the reported apparent KD of K4 kissing-loop reporter for these sequences:
{"columns": ["polymer_sequence", "apparent KD of K4 kissing-loop reporter / nM"],
 "data": [
  ["AGCGAUGUUUUCUCUAAGAGUGAUGUUUUUCGAGGACCGGUACGGCCGCCACUCGAAUAAAGUGUGCGGUAGUGAGCUGUUGACA [#18 K4 Tryptophan A Exclusion]", 580],
  ["AAAUAAAACUAUGAUACCAGUCAUCACAGAGUGAUGUUUUGUGGCAUUUUAAACUUGGCAGACCCUUGGCAGCAUGAUAUAGGAG [theeternabot_sameState_KL_Theo_B_8]", 358],
  ["GCCGUACGCAUGGAUACCAGCAAUUAUGCUCGUGAUCUAGUGAUGUUAGUGGCGAAAGUUUGCCCUUGGCAGCCAUGCGUACGGC", 134]
]}

For each of the items listed, what is its apparent KD of K4 kissing-loop reporter?
1. UAGUAGCUCUCGGCCGCCACUCCUCAGUGAUGUUGAGAUAUUAAGAGCCAAUUGGCUCAUAUAAAGAGGACCGGGAGAGCUACAU [AK4.2 SS Tryptophan B]
2. AAUAAACAGUCGGCCGCCACUUCAAUAGACUUAUUAUUGAAUGGUGUAGUUCUUCAGUGAUGUUGAAGGACCGGGACUUUCGCGC [Isesator]
3. GUGCAGUGAUGUUGCACGAGGAAAGACGAUACCAGCCGUAAAUAAGGCCCUUGGCAGCGUGGACUAGCAUAAAGUAUGCUAGCCU [Isenaonle]
4. UGAUACCAGACUGAUACCAGCAAGUGAUGUUUGCUGAUCUAAAGCAGUCAAAGACUGCCUUGCCCUUGGCAGCAGUCUGGUAUCU [TheoBX 25 #SwitchBubble #StaticStem]
5. CGCGUGGGUUUGAGAGGGUUUGCGCGAAGUGAGGAUAUUUAGGGAGAAAGAAGGCACUAUAAAAUAUAGUGAUGUUAUAUAAGGG [SSFMNA.J]
6. CUUUAUCAACCAGAUACCAGCGGUUCUCUAGUUGGCUUCCGUAGUGAUGUUGCGUGGUCCCGCCCUUGGCAGCUGGCCAUGACUA [theeternabot_sameState_KL_Theo_B_5]
7. ACGUAGUUCUAGGAUACCAGCCAAGGCCCAGGACAAAAGUCCUGGGUCGCCAGUGAUGUUGGCCCUUGGCAGCCUAGAACUACGA [Omei KL Theo B Exc B v11]
8. CGCAGUGAUGUUGCGAGUUUAUUCAGGGAAGGAGCGCCACAGAUGGCAGGUAGGUCGCCCACGCAGUGAUGUUGUGUAUUCGGGU [Exclusion Arginine A GF 3]

a:
350
139
116
156
242
798
387
128

For each of the items listed, what is its apparent KD of K4 kissing-loop reporter?
1. ACGACGCAUAGUGAUACCAGCUAUAUAUGAGUGAUGUUCUACCUAAAAUGGUAAUAAUUUAGCCCUUGGCAGCACUAUGCGUCAG [KL-SSTheoB4]
2. AAUGUACAAGUGAUGUUUGUACUUUCCGAAGGAGCGUCUAAUAAGACAGGUAGGUCGCGGAUUAUCAUAAUUAUCAGGUUUUCAA [JR_SSArginiA_Sub015]
3. UAGAGCAUCGCAGGAUAUCCUGCUUAACGUUGGAUUCCAGUGAUGUUGGAAAGCCGGCCUAGGGUAGGAGAAGGGCGGAUUUGAA [Edvean]
4. UGUCAUUGGUCGGCCGCCACUAGGACCGGGACUUCUCUAGUGAUGUUAGUCUGGUCGGCCGCCACUAGGACCGGGACCGAUGACU [KL-SSTryp-B14 #DoubleAptamer]

a:
1: 562; 2: 89.1; 3: 322; 4: 327
